Provenance of the data: the supplement of paper PMC11865577

Tested on: TO-N3-2 (biotin conjugate)
protocol-text: pull-down binding Z-score (relative to library population); higher = stronger binding
study-conditions: RNA library: Library-2
measurement-kind: pull-down binding Z-score
Reply with the value as a number alone.

construct-sequence: CGGACGUUGCUCUCUACCCCG [hsa-mir-1247]
target-under-test: TO-N3-2 (biotin conjugate)
recorded-number: 1.03

Give its pull-down binding Z-score value. Item: UGCCGACUACUAUAGCAAAGAAUACUGUUAAGAGUGUCGGUA
-0.182

Can you look up the measured pull-down binding Z-score of UUAAGGUGUUUACAACAGUAGACAACAUUAA [DMSMaPseq_invitro_SARS-CoV-2_Motif_93] for me?
-1.08

Look at this sequence and give its reported pull-down binding Z-score. GUUUGUGUAUCUACUAGUGGUAGAUGGGUACUUAAC
-1.05

Which measured pull-down binding Z-score value corresponds to CAGUCAGUAAAUAUUUUUUUGUGAAUG [hsa-mir-511] ?
-0.132

# get_value(readout='pull-down binding Z-score', item= AAGCCCUACGAGAAACUGGGGUUUCUGGA [hsa-mir-765] )
0.503
